Listed below: Ratio values for each entry.
tested on: Folylpolyglutamate synthase (Sus scrofa); assay: The ratio of Kinetic constant Vmax / Binding constant Km at homogenous Hog Liver Folyl polyglutamate Synthetase (FPGS).

# count of solved cases: 3
compound: NCCCC(NC(=O)c1ccc(CNc2ccc3nc(N)nc(O)c3c2C(F)(F)F)cc1)C(=O)O (centres undefined)
Ratio: 118
--
compound: NCCCC(NC(=O)c1ccc(CNc2ccc3nc(N)nc(O)c3c2Cl)cc1)C(=O)O (centres undefined)
Ratio: 102
--
compound: NCCCC(NC(=O)c1ccc(CNc2ccc3nc(N)nc(O)c3c2F)cc1)C(=O)O (centres undefined)
Ratio: 64

Sample NCCCC(NC(=O)c1ccc(NCc2ccc3nc(N)nc(O)c3c2C(F)(F)F)cc1)C(=O)O (centres undefined) — what was its Ratio?
121
